Assay: Human HepG2 cell viability assay in 384 well format
Format: toxicity, cell-based
Design: dose 125 nL, time 70.5 hour; concentration not given beside the values
Settings: HepG2 cells, read-out: Inhibition
Answer condition not met if cytotoxicity at 70.5 h is under -10%, and condition met if it is -10% or more.

// known answers, use as guide
Compound | Category Label
CCC(CCN)n1ccc(C(F)(F)F)n1 (stereo not given) | condition met
Cc1ccc(C(=O)NC2CCN(C(=O)Nc3ccncc3)CC2)o1 | condition not met
Cc1cc(CC(=O)NCC(O)COc2ccc(F)c(F)c2)no1 (stereo not given) | condition not met
Cc1noc(C)c1CN(C)C(=O)COc1cccc(C#N)c1 | condition not met
O=C(Cn1cccn1)NCC(c1cccs1)N1CCCC1 (stereo not given) | condition not met

Hi team, for Cc1cc(CN2CCC(CNC(=O)c3noc4c3CCCC4)C2)[nH]n1 (stereo not given) , is the recorded cytotoxicity at 70.5 h at or above -10%?
condition met

Hi team, for COCCN(Cc1sccc1C)C(=O)COc1cccnc1 , is the recorded cytotoxicity at 70.5 h at or above -10%?
condition met
